Exercise: for every item that follows, state its recorded MBC.
- System: E. faecalis OG1RF biofilms
- PROCEDURE_TEXT: Calgary Biofilm Device (CBD) assay
- EXPERIMENTAL_PARAMETERS: Enterococcus faecalis, OG1RFBIOFILMS, read-out: E.faecalis OG1RF MBC
Give bare numbers, in µM.

As a guide, the following entries are already answered.
COMPOUND	MBC, µM
CN[C@H](CC(C)C)C(=O)N[C@H]1C(=O)N[C@@H](CC(N)=O)C(=O)N[C@H]2C(=O)N[C@H]3C(=O)N[C@H](C(=O)N[C@H](C(=O)O)c4cc(O)cc(O)c4-c4cc3ccc4O)[C@H](O)c3ccc(c(Cl)c3)Oc3cc2cc(c3O[C@@H]2O[C@H](CO)[C@@H](O)[C@H](O)[C@H]2O[C@H]2C[C@](C)(N)[C@H](O)[C@H](C)O2)Oc2ccc(cc2Cl)[C@H]1O [Vancomycin, reference compound]	11.7
Oc1c(Br)c(Cl)c(Br)c2nc3ccccc3nc12	75
Cc1c(Br)ccc2nc3c(O)c(Br)c(Cl)c(Br)c3nc12	1.56
c1ccc(CN(CCN(Cc2ccccn2)Cc2ccccn2)Cc2ccccn2)nc1 [TPEN, reference compound]	500

From here, focus on the item given below.
stdin: Entry Oc1c(Br)c(Cl)c(Br)c2nc3c(Cl)cc(Cl)cc3nc12 has what MBC?
stdout: 3.13

###

- System: VRE 700221 biofilms
- PROCEDURE_TEXT: Calgary Biofilm Device (CBD) assay
- EXPERIMENTAL_PARAMETERS: Enterococcus, read-out: VRE 700221 MBC
One threshold, 200 µM, splits the recorded MBC values: lower ones are Fulfilled, equal or higher ones are Not fulfilled.

COMPOUND	CATEGORY
Oc1c(Br)c(Cl)c(Br)c2nc3ccc(I)cc3nc12 [Compound 37, 2,4-Dibromo-3-chloro-8-iodophenazin-1-ol]	Fulfilled

stdin: Does this compound meet the criterion MBC < 200 µM? c1ccc(CN(CCN(Cc2ccccn2)Cc2ccccn2)Cc2ccccn2)nc1 [TPEN, reference compound]
stdout: Fulfilled

stdin: Does this compound meet the criterion MBC < 200 µM? Cc1ccc2nc3c(O)c(Br)c(Cl)c(Br)c3nc2c1C [Compound 30]
stdout: Fulfilled

stdin: Does this compound meet the criterion MBC < 200 µM? CN[C@H](CC(C)C)C(=O)N[C@H]1C(=O)N[C@@H](CC(N)=O)C(=O)N[C@H]2C(=O)N[C@H]3C(=O)N[C@H](C(=O)N[C@H](C(=O)O)c4cc(O)cc(O)c4-c4cc3ccc4O)[C@H](O)c3ccc(c(Cl)c3)Oc3cc2cc(c3O[C@@H]2O[C@H](CO)[C@@H](O)[C@H](O)[C@H]2O[C@H]2C[C@](C)(N)[C@H](O)[C@H](C)O2)Oc2ccc(cc2Cl)[C@H]1O [Vancomycin, reference compound]
stdout: Not fulfilled

stdin: Does this compound meet the criterion MBC < 200 µM? Oc1c(Br)c(Cl)c(Br)c2nc3c(Cl)cc(Cl)cc3nc12 [Compound 34, 2,4-Dibromo-3,6,8-trichlorophenazin-1-ol]
stdout: Fulfilled

###

In what follows, each item is paired with its MIC for MRSA-44.
Give bare numbers, in µM.

As a guide, the following entries are already answered.
MOLECULE	SYSTEM_TESTED	UNIT_STRING	MEASURED_VALUE
Cc1ccc2nc3c(O)c(Br)c(Cl)c(Br)c3nc2c1C [Compound 30]	MRSA-44	µM	0.08
Cc1cccc2nc3c(O)c(Br)c(Cl)c(Br)c3nc12 [Compound 29]	MRSA-44	µM	0.08
Cc1cccc2nc3c(O)c(Br)c(SCCO)c(Br)c3nc12 [Compound 46]	MRSA-44	µM	6.25

Count: 5. Required value per item: MIC.
1. c1ccc(CN(CCN(Cc2ccccn2)Cc2ccccn2)Cc2ccccn2)nc1 [TPEN, reference compound]
2. O=C(O)CN(CCN(CC(=O)O)CC(=O)O)CC(=O)O [EDTA, ethylenediaminetetraacetic acid, reference compound]
3. Oc1cc(Cl)cc2nc3c(Cl)cc(Cl)cc3nc12 [Compound 24, 3,6,8-Trichlorophenazin-1-ol]
4. Oc1c(Br)ccc2nc3ccccc3nc12 [Compound 1, 2-bromo-1-hydroxyphenazine, reference compound]
5. Oc1cc(Cl)cc2nc3c(Oc4ccccc4)cccc3nc12 [Compound 22, 3-Chloro-6-phenoxyphenazin-1-ol]

stdout:
1: 46.9; 2: 125; 3: 0.3; 4: 3.13; 5: 3.13

Count: 2. Required value per item: MIC.
1. Oc1c(Br)c(Cl)c(Br)c2nc3c(Cl)cc(Cl)cc3nc12 [Compound 34, 2,4-Dibromo-3,6,8-trichlorophenazin-1-ol]
2. Oc1c(Br)c(Cl)c(Br)c2nc3ccc(F)cc3nc12 [Compound 33]

stdout:
[0.15, 0.2]

###

- Test system: S. aureus 138
- PROCEDURE_TEXT: MIC assay against clinical isolate
- Format: cell-based
- EXPERIMENTAL_PARAMETERS: Staphylococcus aureus
Exercise: for every item that follows, state its recorded MIC.
Answers are plain numbers, in µM.

As a guide, the following entries are already answered.
COMPOUND	UNIT_STRING	MIC
Oc1c(Br)c(Cl)c(Br)c2nc3c(Cl)cc(Cl)cc3nc12	µM	0.94
COc1cccc(OC)c1C(=O)N[C@@H]1C(=O)N2[C@@H]1SC(C)(C)[C@@H]2C(=O)O [Methicillin, reference compound]	µM	37.5
Cc1cccc2nc3c(O)c(Br)c(Cl)c(Br)c3nc12	µM	0.08

From here, focus on the item given below.
stdin: Entry CCSc1c(Br)c(O)c2nc3cccc(C)c3nc2c1Br has what MIC?
stdout: 0.47

###

- System: HeLa cells
- PROCEDURE_TEXT: LDH release assay for HeLa cytotoxicity
- EXPERIMENTAL_PARAMETERS: read-out: HeLa Cell Cytotox. (IC50), 24-h, tested at 25, 50 and 100 μM
pIC50: −log10 of the molar value.
READOUT_LABEL: pIC50

MOLECULE	pIC50
Cc1cccc2nc3c(O)c(Br)c(Cl)c(Br)c3nc12 [Compound 29]	< 4.00

Count: 4. Required value per item: pIC50.
1. Oc1c(Br)c(Cl)c(Br)c2nc3ccc(F)cc3nc12 [Compound 33]
2. Oc1c(Br)c(Cl)c(Br)c2nc3c(Cl)cc(Cl)cc3nc12 [Compound 34, 2,4-Dibromo-3,6,8-trichlorophenazin-1-ol]
3. Oc1cc(Cl)cc2nc3c(Cl)cc(Cl)cc3nc12 [Compound 24, 3,6,8-Trichlorophenazin-1-ol]
4. Oc1c(Br)c(Cl)c(Br)c2nc3ccccc3nc12 [Compound 28, 2,4-Dibromo-3-chlorophenazin-1-ol]

stdout:
1: < 4.60; 2: < 4.00; 3: < 4.00; 4: < 4.00

###

- Tested on: human red blood cells
- PROCEDURE_TEXT: Hemolysis assay with red blood cells
- EXPERIMENTAL_PARAMETERS: human RBCs, 1 hour, 37° C.
Exercise: for every item that follows, state its recorded % Hemolysis at 200 μM.

As a guide, the following entries are already answered.
MOLECULE	SYSTEM_TESTED	% Hemolysis at 200 μM
Cc1c(Br)ccc2nc3c(O)c(Br)c(Cl)c(Br)c3nc12 [Compound 31]	human red blood cells	27%
Cc1ccc2nc3c(O)c(Br)c(Cl)c(Br)c3nc2c1C [Compound 30]	human red blood cells	≤1%
Oc1c(Br)c(Cl)c(Br)c2nc3ccc(F)cc3nc12 [Compound 33]	human red blood cells	≤1%

Count: 4. Required value per item: % Hemolysis at 200 μM.
1. Oc1cc(Cl)cc2nc3c(Cl)cc(Cl)cc3nc12 [Compound 24, 3,6,8-Trichlorophenazin-1-ol]
2. Cc1cccc2nc3c(O)c(Br)c(Cl)c(Br)c3nc12 [Compound 29]
3. CCSc1c(Br)c(O)c2nc3cccc(C)c3nc2c1Br [Compound 45]
4. Oc1c(Br)c(Cl)c(Br)c2nc3c(Cl)cc(Cl)cc3nc12 [Compound 34, 2,4-Dibromo-3,6,8-trichlorophenazin-1-ol]

stdout:
["≤1%", "≤1%", "5.7%", "≤1%"]

Count: 3. Required value per item: % Hemolysis at 200 μM.
1. Oc1c(Br)c(Cl)c(Br)c2nc3ccccc3nc12 [Compound 28, 2,4-Dibromo-3-chlorophenazin-1-ol]
2. c1ccc(CN(CCN(Cc2ccccn2)Cc2ccccn2)Cc2ccccn2)nc1 [TPEN, reference compound]
3. Oc1c(Br)c(Cl)c(Br)c2nc3ccc(I)cc3nc12 [Compound 37, 2,4-Dibromo-3-chloro-8-iodophenazin-1-ol]

stdout:
1. ≤1%
2. ≤1%
3. 3.0%

###

- Test system: E. faecalis OG1RF
Exercise: for every item that follows, state its recorded MIC.
Numbers only, in µM.

As a guide, the following entries are already answered.
COMPOUND	MEASURED_VALUE
Cc1ccc2nc3c(O)cc(Cl)cc3nc2c1C [Compound 20, 3-Chloro-6,7-dimethylphenazin-1-ol]	12.5
Oc1c(Br)c(Cl)c(Br)c2nc3ccc(I)cc3nc12 [Compound 37, 2,4-Dibromo-3-chloro-8-iodophenazin-1-ol]	1.56
Cc1cccc2nc3c(O)c(Br)c(Cl)c(Br)c3nc12 [Compound 29]	0.3
O=C(O)CN(CCN(CC(=O)O)CC(=O)O)CC(=O)O [EDTA, ethylenediaminetetraacetic acid, reference compound]	500
CCSc1c(Br)c(O)c2nc3cccc(C)c3nc2c1Br [Compound 45]	0.78
Cc1ccc2nc3c(O)c(Br)c(Cl)c(Br)c3nc2c1C [Compound 30]	0.2

Count: 2. Required value per item: MIC.
1. Cc1c(Br)ccc2nc3c(O)c(Br)c(Cl)c(Br)c3nc12 [Compound 31]
2. Oc1c(Br)c(Cl)c(Br)c2nc3ccccc3nc12 [Compound 28, 2,4-Dibromo-3-chlorophenazin-1-ol]

stdout:
1. 0.08
2. 3.13
